From: PubChem BioAssay (NCI)

# Test system: U251 CNS
# assay_overview: NCI tumour cell line growth inhibition, 48 h
reported_endpoint: TGI

# smiles_representation, value_measured
data = [
    ("CCOC(=O)c1sc2ncn(Cc3cccc(Cl)c3)c(=O)c2c1C", "25.6 µM"),
    ("Clc1ccc(Nc2ccnc(NCCNc3ccnc4cc(Cl)ccc34)n2)cc1", "2.67 µM"),
    ("Cc1ccc(-n2nnc3c(NNc4ccccc4)n[nH]c(=O)c32)cc1", "> 100 µM"),
    ("COc1cc2c(cc1C)NC(=O)/C2=C\\c1cccnc1", "> 100 µM"),
    ("O=c1cnn(C/C=C/CP(=O)(O)O)c(=O)[nH]1", "> 100 µM"),
    ("CC(C)(C)c1ccc(Oc2ccc(C#N)c(C#N)c2)c(C(C)(C)C)c1", "> 100 µM"),
]

* * *

GI50 listing for selected compounds.
# Test system: A498 renal
# assay_overview: NCI tumour cell line growth inhibition, 48 h

# smiles_representation, measured_target, GI50
measured = [
    ("Cc1c(C(=O)CCl)c(=O)n(-c2ccccc2)n1C", "A498 renal", "1240 nM"),
    ("CS(=O)(=O)c1ccc(Oc2nccc(-c3c(-c4ccc(F)cc4)ncn3C3CCNCC3)n2)cc1", "A498 renal", "> 25000 nM"),
    ("O=C(Nc1cccc(C2=NCCN2)c1)c1ccc(OCCCOc2ccc(C(=O)Nc3cccc(C4=NCCN4)c3)cc2)cc1", "A498 renal", "2300 nM"),
]

* * *

# System: RXF 393 renal
# assay_overview: NCI tumour cell line growth inhibition, 48 h; in the data active = GI50 below about 0.43 µM; inactive = the rest
Outcomes: active, inactive

# compound, answer_label
records = [
    ("OCc1ccc(N(Cc2ccc(F)cc2)C2CCC2)cc1Cl", "inactive"),
    ("COc1cc(-c2cc(C(=O)Nc3nc4ccccc4s3)nc3cc(-c4ccccc4)nn23)cc(OC)c1OC", "inactive"),
    ("CCOC(=O)c1sc2ncn(Cc3cccc(Cl)c3)c(=O)c2c1C", "inactive"),
    ("CCN(CC)c1ccc2[nH]c3c(C(N)=O)cc(=O)c(=O)c=3oc2c1", "inactive"),
    ("c1ccc(Oc2c3ccccc3nc3ccccc23)cc1", "inactive"),
    ("COc1ccc2c(CN3CCC(CO)CC3)cc3cc4c(cc3c2c1)OCO4", "active"),
    ("O=P(Oc1ccccc1)(Oc1ccccc1)C(O)c1ccccc1 (configuration not stated)", "inactive"),
]

* * *

# System: A498 renal
# assay_overview: NCI tumour cell line growth inhibition, 48 h; in the data active = GI50 below about 0.43 µM; inactive = the rest
Classes used: active, inactive

# smiles_representation, measured_target, answer_label
measured = [
    ("COc1ccc(C(=O)c2cc(OC)c(OC)c(OC)c2)cc1/C=C/C(=O)c1ccc(O)cc1", "A498 renal", "inactive"),
    ("C=C1C(=O)O[C@H]2[C@H]1CC/C(COC(=O)/C=C/c1cccnc1)=C\\CC[C@@]1(C)O[C@@H]21", "A498 renal", "inactive"),
    ("COc1ccc2c(CN3CCC(CO)CC3)cc3cc4c(cc3c2c1)OCO4", "A498 renal", "active"),
    ("COC(=O)/C=C1\\SC(=Nc2ccc(C(F)(F)F)cc2)N(CCc2c[nH]c3ccccc23)C1=O", "A498 renal", "inactive"),
    ("CCNCCNc1cc(-c2ccc(Cl)cc2)c(C#N)c2nc3ccccc3n12", "A498 renal", "inactive"),
]

* * *

# System: MDA-MB-231 breast
# assay_overview: NCI tumour cell line growth inhibition, 48 h; in the data active = GI50 below about 0.43 µM; inactive = the rest
Classes used: active, inactive

# smiles_representation, answer_label
measured = [
    ("CN(C)CCCNC(=O)c1cc(NC(=O)c2cc(NC(=O)CCCN3c4ccccc4C=Cc4ccccc43)cn2C)cn1C", "inactive"),
    ("COc1cc(-c2cc(C(=O)Nc3nc4ccccc4s3)nc3cc(-c4ccccc4)nn23)cc(OC)c1OC", "inactive"),
    ("O=C1c2cccnc2-c2nc(-c3ccccn3)cc3c2c1nc1ccccc13", "active"),
]

* * *

# System: UACC-257 melanoma
# assay_overview: NCI tumour cell line growth inhibition, 48 h
reported_endpoint: TGI

# compound, value_measured
data = [
    ("c1ccc2c(c1)Sc1ccccc1N2CCCN1c2ccccc2Sc2ccccc21", "> 100 µM"),
    ("CC(C)(C)[Si](C)(C)OC1[C@@H](O[Si](C)(C)C(C)(C)C)[C@@H](CNC(=O)NC(=O)NC(=O)CI)O[C@H]1n1cnc2c(NC(=O)Nc3ccccc3)ncnc21 (some centres undefined)", "16.7 µM"),
    ("COc1ccccc1/[N+]([O-])=C/c1ccccc1OC(=S)S", "> 100 µM"),
    ("O=[N+]([O-])c1ccc2c(c1)OCCOCCOc1ccc([N+](=O)[O-])cc1OCCOCCO2", "> 100 µM"),
]

* * *

# Tested on: HT29 colon
# assay_overview: NCI tumour cell line growth inhibition, 48 h
This listing pairs compounds with measured TGI.

# compound, measured_target, TGI
data = [
    ("CC(C)/C(Cl)=N/OC(NC(=O)Nc1ccc(Cl)c(Cl)c1)(C(F)(F)F)C(F)(F)F", "HT29 colon", "53.7 µM"),
    ("CCOC(=O)c1csc(NC(=O)CN2CCCCC2)n1", "HT29 colon", "> 100 µM"),
    ("Cc1c(C(=O)CCl)c(=O)n(-c2ccccc2)n1C", "HT29 colon", "12.9 µM"),
    ("COc1cc(/C=C2\\CC(C)CC3C2=NN(c2ccccc2)C3c2cc(OC)c(OC)c(OC)c2)cc(OC)c1OC (stereo not given)", "HT29 colon", "39.9 µM"),
    ("C(=C\\c1ccccc1)/Cn1nc(-c2ccccc2)nc1-c1cnccn1", "HT29 colon", "> 100 µM"),
    ("CN1NC2=NCCN=C3NN(C)C(=NCCN=C1S2)S3", "HT29 colon", "> 100 µM"),
    ("N#Cc1c(Cl)cccc1Oc1ccc(S(=O)(=O)/N=C(\\NO)Nc2ccc(Cl)cc2)cc1", "HT29 colon", "31.5 µM"),
    ("C=C(CN1CCc2ccccc2C1)c1ccc(/C=C/C(=O)Nc2ccccc2N)cc1", "HT29 colon", "> 100 µM"),
    ("CC1=CC(=C(c2ccc(N)c(C)c2)c2ccc(N)c(C)c2)C=CC1=N", "HT29 colon", "15.6 µM"),
    ("C=C[C@@]1(C)CC(=O)[C@]2(O)[C@@]3(C)[C@@H](OC(C)=O)CCC(C)(C)[C@@H]3[C@H](O)[C@H](OC(C)=O)[C@@]2(C)O1", "HT29 colon", "> 100 µM"),
    ("CCOc1cc(NC(C)=O)ccc1C(=O)NN1C(=O)C(Cl)C1c1ccc(O)c(OC)c1 (stereo not given)", "HT29 colon", "31.9 µM"),
    ("CS(=O)(=O)c1ccc(Oc2nccc(-c3c(-c4ccc(F)cc4)ncn3C3CCNCC3)n2)cc1", "HT29 colon", "> 25 µM"),
    ("O=C1C2c3[nH]c4ccccc4c3C3CCSCC3C2C(=O)N1c1ccccc1 (stereo not given)", "HT29 colon", "> 100 µM"),
    ("O=[N+]([O-])c1ccc2c(c1)OCCOCCOc1ccc([N+](=O)[O-])cc1OCCOCCO2", "HT29 colon", "> 100 µM"),
    ("COc1cc2c3c(n(CCCO)c(=O)c2cc1OC)-c1cc2c(cc1C3=O)OCO2", "HT29 colon", "> 100 µM"),
    ("COC(=O)/N=[N+](\\[O-])C(c1ccc(Cl)cc1)c1ccc(Cl)cc1", "HT29 colon", "> 100 µM"),
    ("CCOC(=O)NC(OCCN(C)C)(C(F)(F)F)C(F)(F)F", "HT29 colon", "> 100 µM"),
    ("CC(=O)C(C(=N)C#N)C(=O)Nc1ccccc1 (stereo not given)", "HT29 colon", "> 100 µM"),
    ("CCOC(=O)/C(=C\\NC[C@@H](C)O)c1nc2ccccc2[nH]1", "HT29 colon", "> 100 µM"),
    ("COC(=O)C1=C(O)C(C(=O)OC)[C@]2(O)[C@H](C(=O)OC)[C@H]1C[C@@H](c1ccc(O)cc1)[C@H]2C(=O)OC (stereo not given in full)", "HT29 colon", "> 100 µM"),
]

* * *

# Tested on: DU-145 prostate
# assay_overview: NCI tumour cell line growth inhibition, 48 h
reported_endpoint: TGI

# smiles_representation, reported_endpoint, value_measured
rows = [
    ("N/C(=N\\Nc1cccc(Cl)c1)c1cccnc1", "TGI", "> 100 µM"),
    ("C=CCN1C(=O)/C(=C/c2ccccc2)N=C1SC/C=C/C", "TGI", "> 100 µM"),
    ("CC(=O)O[C@H]1CC[C@@]2(C)C(=CC[C@H]3[C@@H]4C[C@H](N5CCN(C)CC5)[C@H](OC(C)=O)[C@@]4(C)CC[C@@H]32)C1", "TGI", "> 100 µM"),
    ("CCN(Cc1ccc(F)cc1F)c1ccc(CO)c(Cl)c1", "TGI", "> 70.9 µM"),
    ("O=C(CSc1nc2ccc([N+](=O)[O-])cc2[nH]1)Nc1cccc(C(F)(F)F)c1", "TGI", "15 µM"),
]
